test.system: recombinant mouse GALK1 (Mus musculus)
Sequence (Q9R0N0 whole entry): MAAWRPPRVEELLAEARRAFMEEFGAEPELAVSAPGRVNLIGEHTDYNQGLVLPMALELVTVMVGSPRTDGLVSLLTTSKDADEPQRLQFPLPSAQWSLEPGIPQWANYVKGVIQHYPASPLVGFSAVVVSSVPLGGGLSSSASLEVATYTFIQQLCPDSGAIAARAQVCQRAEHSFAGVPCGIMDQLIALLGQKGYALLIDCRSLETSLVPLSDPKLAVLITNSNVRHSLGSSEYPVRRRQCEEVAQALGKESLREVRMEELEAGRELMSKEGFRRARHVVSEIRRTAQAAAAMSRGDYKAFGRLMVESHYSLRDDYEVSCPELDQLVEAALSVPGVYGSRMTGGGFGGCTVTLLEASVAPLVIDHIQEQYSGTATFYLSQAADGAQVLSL
protocol.summary: mGALK1 biochemical activity assay (Kinase-Glo Plus, ATP depletion)
recorded.conditions: recombinant mouse GALK1, Kinase-Glo Plus ATP depletion; read-out: mGALK
pIC50: −log10 of the molar value.
readout: pIC50

Use these answered entries as a reference point.
1) CC1=C(C(=O)Nc2cc(C(=O)O)ccn2)C(c2ccccc2Cl)N=C(Nc2nc3cccc(N)c3o2)N1 (racemic) :: 5.46
2) CC1=C(C(=O)NCc2cnn(C)c2)C(c2ccc(C)cc2Cl)N=C(Nc2nc3cccc(N)c3o2)N1 (racemic) :: 5.66
3) CC1=C(C(=O)Nc2cc(C(=O)O)ccn2)C(c2ccccc2Cl)N=C(Nc2nc3c(Cl)cccc3o2)N1 (centres unmarked) :: 4.86
4) CC1=C(C(=O)Nc2cc(C(=O)O)ccn2)C(c2ccccc2Cl)N=C(Nc2nc3c(N)cccc3o2)N1 (centres unmarked) :: 4.51
5) CC1=C(C(=O)Nc2ccc([N+](=O)[O-])cc2)C(c2ccccc2Cl)N=C(Nc2nc3ccccc3o2)N1 (centres unmarked) :: 5.46

(P) CC1=C(C(=O)NCc2ccc(CO)cc2)C(c2ccccc2Cl)N=C(Nc2nc3ccccc3o2)N1 (centres unmarked)
(Q) COC(=O)c1cccc(CNC(=O)C2=C(C)NC(Nc3nc4ccccc4o3)=NC2c2ccccc2Cl)c1 (centres unmarked)
// pick larger pIC50 from pair: P vs Q Pick one and reply with its label.
Q
(Q: 5.11, P: 4.81)

(P) CC1=C(C(=O)NCc2cccc(C(=O)O)c2)C(c2ccccc2Cl)N=C(Nc2nc3ccccc3o2)N1 (centres unmarked)
(Q) CC1=C(C(=O)Nc2cc(-c3nn[nH]n3)ccn2)C(c2ccc(C)cc2Cl)N=C(Nc2nc3ccc(F)cc3o2)N1 (centres unmarked)
// pick larger pIC50 from pair: P vs Q Pick one and reply with its label.
Q

(P) CC1=C(C(=O)NCc2nccn2C)C(c2ccccc2Cl)N=C(Nc2nc3ccccc3o2)N1 (centres unmarked)
(Q) CC1=C(C(=O)Nc2cc(C(=O)O)ccn2)[C@@H](c2ccc(C)cc2Cl)N=C(Nc2nc3ccc(F)cc3o2)N1
I would appreciate it if you could say which entry, P or Q , has the lower pIC50 value. Pick one and reply with its label.
P

(1) CC1=C(C(=O)NCc2cccnc2)C(c2ccccc2Cl)N=C(Nc2nc3ccccc3o2)N1 (centres unmarked)
(2) CC1=C(C(=O)Nc2cccc(-c3nnn[nH]3)c2)C(c2ccccc2Cl)N=C(Nc2nc3ccccc3o2)N1 (centres unmarked)
(3) CC1=C(C(=O)NCc2cnn(C)c2)C(c2ccccc2Cl)N=C(Nc2nc3ccc(F)cc3o2)N1 (centres unmarked)
Sort low-to-high on pIC50, please. Form entry: ranked labels (order as requested).
2, 1, 3
(2: 4.46, 1: 4.71, 3: 4.91)

// provenance: patent US20230158025A1
